testSystem: T1, carrier-free soluble human IL-6R (R&D) (human, UniProt P08887 20-365)
T1 construct: extracellular domain; also called shuIL-6R; shuIL6-R
T1 sequence (looked up): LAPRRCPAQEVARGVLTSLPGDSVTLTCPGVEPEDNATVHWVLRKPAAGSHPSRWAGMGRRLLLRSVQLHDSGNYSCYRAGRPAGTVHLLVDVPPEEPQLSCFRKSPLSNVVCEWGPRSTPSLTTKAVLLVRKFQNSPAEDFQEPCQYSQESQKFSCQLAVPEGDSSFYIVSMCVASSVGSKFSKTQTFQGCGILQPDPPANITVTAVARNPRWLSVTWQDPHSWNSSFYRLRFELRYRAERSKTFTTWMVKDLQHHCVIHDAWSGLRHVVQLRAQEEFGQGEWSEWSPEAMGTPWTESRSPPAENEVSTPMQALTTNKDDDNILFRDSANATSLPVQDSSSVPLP
testDetails: SPR (Biacore 2000), mAb captured on anti-human IgG Fc, analyte in solution, 25 C, 1:1 Langmuir
readoutLabel: kon

{"columns": ["binder", "readoutLabel", "measValue"],
 "data": [
  ["NI-1201 wild type (NI-1201-WT) antibody (antibody, V domains shown, Fully human monoclonal IgG (captured by anti-human IgG Fc in Biacore); also called 39B9 VL1) VH: QVQLVQSGAEVKKPGSSVKVSCKASGGTFSSYAISWVRQAPGQGLEWMGGIIPLFDTTKYAQQFQGRVTITADESTSTAYMELSSLRSEDTAVFYCARDRDILTDYYPMGGMDVWGQGTTVTVSS VL: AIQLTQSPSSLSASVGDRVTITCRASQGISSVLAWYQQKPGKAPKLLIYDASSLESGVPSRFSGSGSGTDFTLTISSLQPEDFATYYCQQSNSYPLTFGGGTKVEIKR", "kon", "1.33e+06 M⁻¹ s⁻¹"],
  ["NI-1201-B antibody (antibody, V domains shown) VH: QVQLVQSGAEVKKPGSSVKVSCKASGGTFSSYAISWVRQAPGQGLEWMGGIIPLFDTTKYAQKFQGRVTITADESTSTAYMELSSLRSEDTAVYYCARDRDILTDYYPLGGMDVWGQGTTVTVSS VL: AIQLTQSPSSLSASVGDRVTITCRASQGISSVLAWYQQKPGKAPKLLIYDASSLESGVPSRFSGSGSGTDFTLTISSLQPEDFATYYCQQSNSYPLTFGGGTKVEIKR", "kon", "875000 M⁻¹ s⁻¹"],
  ["NI-1201-A antibody (antibody, V domains shown) VH: QVQLVQSGAEVKKPGSSVKVSCKASGGTFSSYAISWVRQAPGQGLEWMGGIIPLFDTTKYAQKFQGRVTITADESTSTAYMELSSLRSEDTAVYYCARDRDILTDYYPMGGMDVWGQGTTVTVSS VL: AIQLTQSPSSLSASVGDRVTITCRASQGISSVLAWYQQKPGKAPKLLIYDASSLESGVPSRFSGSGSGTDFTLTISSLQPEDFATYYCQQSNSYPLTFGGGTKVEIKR", "kon", "829000 M⁻¹ s⁻¹"],
  ["NI-1201-D antibody (antibody, V domains shown) VH: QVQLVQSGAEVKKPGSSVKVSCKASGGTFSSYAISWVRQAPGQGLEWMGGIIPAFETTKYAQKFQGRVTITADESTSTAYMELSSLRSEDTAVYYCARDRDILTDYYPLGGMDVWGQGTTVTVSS VL: AIQLTQSPSSLSASVGDRVTITCRASQGISSVLAWYQQKPGKAPKLLIYDASSLESGVPSRFSGSGSGTDFTLTISSLQPEDFATYYCQQSQSYPLTFGGGTKVEIKR", "kon", "761000 M⁻¹ s⁻¹"]
]}
